target: α1a (Bovine) (Bos taurus, UniProt P18130); assay: Radioligand binding, displacement of [3H]-prazosin from cloned α1a (bovine) expressed in LTK cells; conditions: [3H]-prazosin 0.2 nM; cloned bovine α1a in LTK cell membranes; 25° C., 50 minutes
Sequence (P18130 whole entry): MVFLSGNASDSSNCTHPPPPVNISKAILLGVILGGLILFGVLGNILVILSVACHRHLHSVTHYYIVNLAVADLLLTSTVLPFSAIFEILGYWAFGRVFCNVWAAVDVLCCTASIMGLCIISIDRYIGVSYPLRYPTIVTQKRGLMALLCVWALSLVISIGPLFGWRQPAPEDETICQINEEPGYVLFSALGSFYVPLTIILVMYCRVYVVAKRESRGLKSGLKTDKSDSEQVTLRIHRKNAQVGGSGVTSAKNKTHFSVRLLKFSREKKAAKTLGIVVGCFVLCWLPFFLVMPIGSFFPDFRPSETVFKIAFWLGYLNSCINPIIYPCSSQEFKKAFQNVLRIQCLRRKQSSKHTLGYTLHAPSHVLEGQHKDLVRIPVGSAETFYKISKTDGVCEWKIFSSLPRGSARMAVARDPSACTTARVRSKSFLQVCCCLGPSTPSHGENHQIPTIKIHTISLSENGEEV
Counter-ions that a name gives are not always drawn.
Measurement Name: Ki (nM)

Compound | Ki (nM)
COc1cccc([C@H]2CCN(CCCCn3c(=O)[nH]c4c(sc5ncccc54)c3=O)C2)c1 [Example 24, Dihydrochloride] | 2.81

A = COc1ccc2sc3c(=O)n(CCCCN4CC[C@H](c5ccccc5OC)C4)c(=O)[nH]c3c2n1 [Example 11, Dihydrochloride]
B = COc1ccccc1[C@H]1CCN(CCCCn2c(=O)[nH]c3c(sc4nccnc43)c2=O)C1 [Example 13, Dihydrochloride]
Task item: Just curious, which one has the larger Ki reading, A or B ? Identify your selection by its label.
Reply: A

I = COc1ccccc1[C@H]1CCN(CCCCN2C(=O)c3ccccc3C2=O)C1 [Example 12, Monohydrochloride]
II = COc1ccccc1[C@@H]1CCN(CCCn2c(=O)[nH]c3c(sc4cccnc43)c2=O)C1 [Example 28, Dihydrochloride]
Task item: Just curious, which one has the larger Ki reading, I or II ? Identify your selection by its label.
Reply: II
(II: 10.3 nM, I: 0.06 nM)

a = COc1cccc([C@H]2CCN(CCCCn3c(=O)[nH]c4c(sc5cccnc54)c3=O)C2)c1 [Example 22, Dihydrochloride]
b = COc1ccccc1[C@H]1CCN(CCCCn2c(=O)[nH]c3c(sc4ncc(Cl)nc43)c2=O)C1 [Example 14, Dihydrochloride]
Task item: # compare Ki for a vs b ; return the one with the smaller value Identify your selection by its label.
Reply: b

---

Target: α1a (Rat) (Rattus norvegicus, UniProt P43140)
Sequence (P43140 1-466): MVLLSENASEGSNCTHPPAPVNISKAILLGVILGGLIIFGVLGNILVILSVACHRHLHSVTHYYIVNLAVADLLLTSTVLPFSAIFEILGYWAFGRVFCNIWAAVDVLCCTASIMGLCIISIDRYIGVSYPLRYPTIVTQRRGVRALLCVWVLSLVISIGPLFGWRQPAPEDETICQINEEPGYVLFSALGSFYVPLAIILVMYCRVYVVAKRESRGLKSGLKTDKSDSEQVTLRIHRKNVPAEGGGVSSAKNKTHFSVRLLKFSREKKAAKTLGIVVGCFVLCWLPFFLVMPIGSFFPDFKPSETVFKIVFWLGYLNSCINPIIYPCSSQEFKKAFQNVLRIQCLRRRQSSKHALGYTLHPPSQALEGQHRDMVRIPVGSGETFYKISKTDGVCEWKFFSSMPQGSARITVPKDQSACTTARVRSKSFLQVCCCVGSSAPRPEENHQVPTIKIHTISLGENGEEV
Test: Radioligand binding, displacement of [3H]-prazosin from cloned α1a (rat) expressed in LTK cells
Details: [3H]-prazosin 0.2 nM; cloned rat α1a in LTK cell membranes; 25° C., 50 minutes
Where a name gives a salt, the structure may show the parent alone.
Measurement Name: Ki (nM)

A = COc1ccccc1[C@@H]1CCN(CCCn2c(=O)[nH]c3c(sc4cccnc43)c2=O)C1 [Example 28, Dihydrochloride]
B = COc1ccccc1[C@H]1CCN(CCn2c(=O)[nH]c3c(sc4cccnc43)c2=O)C1 [Example 4, bis(hydrochloride) Salt]
C = COc1cccc([C@H]2CCN(CCn3c(=O)[nH]c4c(sc5ncccc54)c3=O)C2)c1 [Example 23, Dihydrochloride]
D = COc1ccccc1[C@H]1CCN(CCCCN2C(=O)c3ccccc3C2=O)C1 [Example 12, Monohydrochloride]
Task item: Order required: smallest reported Ki first, largest last, for all molecules above. List the labels, following the order given in the request.
Reply: D, B, A, C
(D: 0.32 nM, B: 2.61 nM, A: 25.8 nM, C: 134 nM)

---

biological target: α1b (Hamster) (Mesocricetus auratus, UniProt P18841); test: Radioligand binding, displacement of [3H]-prazosin from cloned α1b (hamster) expressed in LTK cells; settings: [3H]-prazosin 0.2 nM; cloned hamster α1b in LTK cell membranes; 25° C., 50 minutes
Sequence (P18841 whole entry): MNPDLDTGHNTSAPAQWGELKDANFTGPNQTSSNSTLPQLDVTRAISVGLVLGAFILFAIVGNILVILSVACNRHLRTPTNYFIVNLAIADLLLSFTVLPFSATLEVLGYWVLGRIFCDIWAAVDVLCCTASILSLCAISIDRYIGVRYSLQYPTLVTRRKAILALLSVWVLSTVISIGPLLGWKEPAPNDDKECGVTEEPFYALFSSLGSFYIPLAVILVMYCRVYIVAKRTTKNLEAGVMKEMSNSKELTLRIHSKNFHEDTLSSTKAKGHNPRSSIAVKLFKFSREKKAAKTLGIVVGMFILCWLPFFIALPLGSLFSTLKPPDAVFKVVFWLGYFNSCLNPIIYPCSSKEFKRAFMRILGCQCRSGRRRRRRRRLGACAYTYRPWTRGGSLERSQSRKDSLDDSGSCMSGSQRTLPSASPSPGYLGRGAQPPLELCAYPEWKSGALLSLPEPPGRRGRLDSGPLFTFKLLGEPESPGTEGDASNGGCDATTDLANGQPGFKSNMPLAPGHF
Counter-ions that a name gives are not always drawn.
Measurement Name: Ki (nM)

Compound | Test System | Measurement Units | Ki
COc1ccccc1[C@H]1CCN(CCCCN2C(=O)c3ccccc3C2=O)C1 [Example 12, Monohydrochloride] | α1b (Hamster) (Mesocricetus auratus, UniProt P18841) | nM | 0.96

I = COc1cccc([C@H]2CCN(CCn3c(=O)[nH]c4c(sc5ccccc54)c3=O)C2)c1 [Example 3, Monohydrochloride]
II = COc1ccc2sc3c(=O)n(CCCCN4CC[C@H](c5ccccc5OC)C4)c(=O)[nH]c3c2n1 [Example 11, Dihydrochloride]
Task item: Just curious, which one has the larger Ki reading, I or II ? Identify your selection by its label.
Reply: I

P = COc1ccccc1[C@H]1CCN(CCCn2c(=O)[nH]c3c(sc4cccnc43)c2=O)C1 [Example 5, Dihydrochloride]
Q = COc1ccccc1[C@H]1CCN(CCCCn2c(=O)[nH]c3c(sc4ccccc43)c2=O)C1 [Example 2, Monohydrochloride]
Task item: # compare Ki for P vs Q ; return the one with the smaller value Identify your selection by its label.
Reply: Q

A = COc1ccccc1[C@H]1CCN(CCCCn2c(=O)[nH]c3c(sc4ncc(Cl)nc43)c2=O)C1 [Example 14, Dihydrochloride]
B = COc1cccc([C@H]2CCN(CCCCn3c(=O)[nH]c4c(sc5cccnc54)c3=O)C2)c1 [Example 22, Dihydrochloride]
Task item: Just curious, which one has the larger Ki reading, A or B ? Identify your selection by its label.
Reply: B
(B: 18.4 nM, A: 5.9 nM)

---

target: UniProtKB P18130; assay: Radioligand binding, displacement of [3H]-prazosin from cloned α1a (bovine) expressed in LTK cells; conditions: [3H]-prazosin 0.2 nM; cloned bovine α1a in LTK cell membranes; 25° C., 50 minutes
Where a name gives a salt, the structure may show the parent alone.
Measurement Name: Ki (nM)

Compound | Measurement Name | Numeric Readout
COc1cnc2sc3c(=O)n(CCCCN4CC[C@H](c5ccccc5OC)C4)c(=O)[nH]c3c2n1 [Example 15, Dihydrochloride] | Ki | 0.06
COc1ccccc1[C@H]1CCN(CCCCN2C(=O)c3ccccc3S2(=O)=O)C1 [Example 17, Monohydrochloride] | Ki | 0.03
COc1ccccc1[C@H]1CCN(CCCCn2c(=O)[nH]c3c(sc4ccc(Cl)nc43)c2=O)C1 [Example 10, Dihydrochloride] | Ki | 0.05
COc1ccccc1[C@H]1CCN(CCCCCn2c(=O)[nH]c3c(sc4cccnc43)c2=O)C1 [Example 7, Dihydrochloride] | Ki | 0.18
COc1cccc([C@@H]2CCN(CCn3c(=O)[nH]c4c(sc5ccccc54)c3=O)C2)c1 [Example 26, Monohydrochloride] | Ki | 1.24

I = COc1ccccc1[C@H]1CCN(CCCCCn2c(=O)[nH]c3c(sc4ncccc43)c2=O)C1 [Example 9, Dihydrochloride]
II = COc1ccccc1[C@H]1CCN(CCn2c(=O)[nH]c3c(sc4cccnc43)c2=O)C1 [Example 4, bis(hydrochloride) Salt]
Task item: # compare Ki for I vs II ; return the one with the smaller value Identify your selection by its label.
Reply: I

---

molecular target: α1a (Bovine) (Bos taurus, UniProt P18130); assay: Radioligand binding, displacement of [3H]-prazosin from cloned α1a (bovine) expressed in LTK cells; conditions: [3H]-prazosin 0.2 nM; cloned bovine α1a in LTK cell membranes; 25° C., 50 minutes
Structures can show the parent of a compound that is named as a salt.
Measurement Name: Ki (nM)

Past entries and their recorded results:
Compound | Measurement Units | Ki
COc1ccccc1[C@H]1CCN(CCCCn2c(=O)[nH]c3c(sc4cccnc43)c2=O)C1 [Example 6, Dihydrochloride] | nM | 0.05
COc1ccccc1[C@H]1CCN(CCCCn2c(=O)[nH]c3c(sc4ncc(-c5ccccc5)nc43)c2=O)C1 [Example 16, Dihydrochloride] | nM | 0.09

I = COc1cccc([C@H]2CCN(CCn3c(=O)[nH]c4c(sc5ccccc54)c3=O)C2)c1 [Example 3, Monohydrochloride]
II = COc1ccccc1[C@H]1CCN(CCCCN2C(=O)CCc3ccccc32)C1 [Example 19, Monohydrochloride]
Task item: # compare Ki for I vs II ; return the one with the smaller value Identify your selection by its label.
Reply: II
(II: 0.15 nM, I: 5.95 nM)

---

target: α1d (rat) (Rattus norvegicus, UniProt P23944); experiment: Radioligand binding, displacement of [3H]-prazosin from cloned α1d (rat) expressed in LTK cells; settings: [3H]-prazosin 0.2 nM; cloned rat α1d in LTK cell membranes; 25° C., 50 minutes
Sequence (P23944 whole entry): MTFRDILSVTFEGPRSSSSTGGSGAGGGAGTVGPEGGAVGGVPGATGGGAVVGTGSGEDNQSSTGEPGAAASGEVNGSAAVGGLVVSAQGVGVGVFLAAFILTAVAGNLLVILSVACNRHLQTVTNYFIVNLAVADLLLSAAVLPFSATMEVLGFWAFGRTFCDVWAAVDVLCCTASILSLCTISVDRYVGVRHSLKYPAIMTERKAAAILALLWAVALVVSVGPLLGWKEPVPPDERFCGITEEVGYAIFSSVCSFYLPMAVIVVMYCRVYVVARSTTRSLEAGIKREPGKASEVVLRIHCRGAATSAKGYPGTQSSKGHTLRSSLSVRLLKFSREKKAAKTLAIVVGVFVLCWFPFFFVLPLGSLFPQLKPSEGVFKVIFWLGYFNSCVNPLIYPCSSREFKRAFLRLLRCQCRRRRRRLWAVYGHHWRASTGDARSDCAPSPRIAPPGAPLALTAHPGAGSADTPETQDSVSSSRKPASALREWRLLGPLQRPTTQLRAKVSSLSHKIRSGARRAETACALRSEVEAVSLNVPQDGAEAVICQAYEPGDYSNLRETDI
Counter-ions that a name gives are not always drawn.
Measurement Name: Ki (nM)

Past entries and their recorded results:
Compound | Ki (nM)
COc1ccccc1[C@H]1CCN(CCCCn2c(=O)[nH]c3c(sc4ncc(-c5ccccc5)nc43)c2=O)C1 [Example 16, Dihydrochloride] | 0.64
COc1ccccc1[C@H]1CCN(CCCCn2c(=O)[nH]c3c(sc4ccccc43)c2=O)C1 [Example 2, Monohydrochloride] | 0.03
COc1ccccc1[C@H]1CCN(CCCCN2C(=O)COc3ccccc32)C1 [Example 18, Monohydrochloride] | 0.66
COc1ccccc1[C@H]1CCN(CCCn2c(=O)[nH]c3c(sc4cccnc43)c2=O)C1 [Example 5, Dihydrochloride] | 2.25
COc1ccccc1[C@H]1CCN(CCCCN2C(=O)CCc3ccccc32)C1 [Example 19, Monohydrochloride] | 0.23

a = COc1ccccc1[C@@H]1CCN(CCn2c(=O)[nH]c3c(sc4ccccc43)c2=O)C1 [Example 25, Monohydrochloride]
b = COc1ccc2sc3c(=O)n(CCCCN4CC[C@H](c5ccccc5OC)C4)c(=O)[nH]c3c2n1 [Example 11, Dihydrochloride]
c = COc1cccc([C@H]2CCN(CCn3c(=O)[nH]c4c(sc5ncccc54)c3=O)C2)c1 [Example 23, Dihydrochloride]
d = COc1ccccc1[C@H]1CCN(CCCCN2C(=O)c3ccccc3C2=O)C1 [Example 12, Monohydrochloride]
e = COc1ccccc1[C@@H]1CCN(CCn2c(=O)[nH]c3c(sc4cccnc43)c2=O)C1 [Example 27, Dihydrochloride]
Task item: Please list these in order of increasing Ki. Thank you! List the labels, following the order given in the request.
Reply: b, d, a, e, c
(b: 0.12 nM, d: 0.28 nM, a: 3.86 nM, e: 8.48 nM, c: 86.4 nM)

1 = COc1ccccc1[C@H]1CCN(CCCCCn2c(=O)[nH]c3c(sc4ncccc43)c2=O)C1 [Example 9, Dihydrochloride]
2 = COc1ccccc1[C@H]1CCN(CCCCn2c(=O)[nH]c3c(sc4ncccc43)c2=O)C1 [Example 8, Dihydrochloride]
Task item: Just curious, which one has the larger Ki reading, 1 or 2 ? Identify your selection by its label.
Reply: 1
(1: 2.35 nM, 2: 0.09 nM)

A = COc1ccccc1[C@H]1CCN(CCCCCn2c(=O)[nH]c3c(sc4cccnc43)c2=O)C1 [Example 7, Dihydrochloride]
B = COc1cccc([C@H]2CCN(CCCCn3c(=O)[nH]c4c(sc5cccnc54)c3=O)C2)c1 [Example 22, Dihydrochloride]
C = COc1ccccc1[C@@H]1CCN(CCCn2c(=O)[nH]c3c(sc4cccnc43)c2=O)C1 [Example 28, Dihydrochloride]
D = COc1ccccc1[C@H]1CCN(CCCCn2c(=O)[nH]c3c(sc4nccnc43)c2=O)C1 [Example 13, Dihydrochloride]
Task item: Please list these in order of increasing Ki. Thank you! List the labels, following the order given in the request.
Reply: D, A, B, C
(D: 0.36 nM, A: 2.13 nM, B: 11.5 nM, C: 27.8 nM)

P = COc1cccc([C@@H]2CCN(CCn3c(=O)[nH]c4c(sc5ccccc54)c3=O)C2)c1 [Example 26, Monohydrochloride]
Q = COc1ccccc1[C@@H]1CCN(CCCCn2c(=O)[nH]c3c(sc4cccnc43)c2=O)C1 [Example 29, Dihydrochloride]
Task item: # compare Ki for P vs Q ; return the one with the smaller value Identify your selection by its label.
Reply: Q
(Q: 2.02 nM, P: 3.04 nM)
